# assayed.target: hTAAR1 (Homo sapiens)
# experimental.protocol: hTAAR1 functional assay (cAMP)
# study.conditions: read-out: hTAAR1 EC50 (mean ± SEM (n))
pEC50: −log10 of the molar value.
Output schema: class label derived from pEC50. Mapping: low bracket: < 6; middle bracket: ≥ 6 and < 7; high bracket: ≥ 7

>  <compound>
NC1=N[C@@H](CCc2ccc(NC(=O)c3ccc(Cl)cc3)cc2)CO1

>  <cat>
high bracket

$$$$
>  <compound>
O=C(Nc1ccc(C2CCNC2)cc1)Nc1ccc(Cl)cn1 (stereo not shown)

>  <cat>
high bracket

$$$$
>  <compound>
CC(C)n1nc(OCC(F)(F)F)cc1C(=O)Nc1ccc(C2OC3CN[C@H]2C3)cc1 (stereo partly shown)

>  <cat>
middle bracket

$$$$
>  <compound>
Cc1c(F)cccc1[C@H]1COC(N)=N1

>  <cat>
high bracket

$$$$

For the record CCOc1cccc(NC(=O)c2ccc(N3CCCC3)c(C(F)(F)F)c2)c1 , report the class its pEC50 corresponds to.
low bracket

For the record O=C(Nc1ccc(C2CCNC2)cc1)c1ccc(Cl)cn1 (stereo not shown) , report the class its pEC50 corresponds to.
middle bracket

For the record O=C(Nc1ccc(C2O[C@@H]3CN[C@H]2C3)cc1)c1ccc(Cl)cc1 (stereo partly shown) , report the class its pEC50 corresponds to.
low bracket

---

# assayed.target: hTAAR1 (Homo sapiens, UniProt Q96RJ0)
# Construct: expressed in transfected cells; host or cells: recombinant cells
# Sequence (Q96RJ0 1-339): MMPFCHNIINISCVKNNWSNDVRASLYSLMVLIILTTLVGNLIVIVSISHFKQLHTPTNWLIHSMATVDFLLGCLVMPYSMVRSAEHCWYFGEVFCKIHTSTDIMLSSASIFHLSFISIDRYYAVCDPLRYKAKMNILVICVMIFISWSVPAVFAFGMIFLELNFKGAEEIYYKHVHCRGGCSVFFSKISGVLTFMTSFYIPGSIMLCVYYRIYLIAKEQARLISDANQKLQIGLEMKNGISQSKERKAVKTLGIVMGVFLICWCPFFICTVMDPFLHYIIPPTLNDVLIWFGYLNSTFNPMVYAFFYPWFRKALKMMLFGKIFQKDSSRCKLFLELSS
# experimental.protocol: hTAAR1 functional assay (cAMP)
# Assay type: cell-based
# study.conditions: read-out: hTAAR1 Emax (mean ± SEM (n))
# Experimental: EC50 and Erna, values are reported for these compounds in Table 1. A GPCR cAMP Modulation Assay can be used to determine whether a compound can be considered an agonist or antagonist. cAMP Hunter cell lines were expanded from freezer stocks according to standard procedures. Cells were seeded into white walled, 384-well microplates in a total volume of 20 μL and incubated at 37° C. prior to testing. cAMP modulation was determined using a DiscoverX HitHunter cAMP XS+assay. […]
observed.property: Emax
Don't forget the unit after the number, please.

Some entries whose results are on file:
>  <molecule>
Cc1c(F)cccc1[C@H]1COC(N)=N1

>  <Emax>
68.7%

$$$$
>  <molecule>
CCN(CC1COC(N)=N1)c1ccccc1 (centres unmarked) [drawing 40]

>  <Emax>
81.7%

$$$$
>  <molecule>
CCOc1cccc(NC(=O)c2ccc(N3CCCC3)c(C(F)(F)F)c2)c1

>  <Emax>
6.1%

$$$$
>  <molecule>
NC1=N[C@@H](c2ccc(Cl)c(Cl)c2)CO1

>  <Emax>
35.5%

$$$$
>  <molecule>
Clc1ccc(Nc2ccc(C3CNCCO3)nc2)cc1 (centres unmarked)

>  <Emax>
56.1%

$$$$
>  <molecule>
O=C(Nc1ccc(C2CCNC2)cc1)c1ccc(Cl)cn1 (centres unmarked)

>  <Emax>
73.5%

$$$$

# lookup: Emax of O=C(Nc1ccc(C2CCNC2)cc1)Nc1ccc(Cl)cn1 (centres unmarked)
80.9%

# lookup: Emax of NC1=N[C@@H](CCc2ccc(NC(=O)c3ccc(Cl)cc3)cc2)CO1
42.7%
